FYI, the data here is from patent US20220177587A1.

Biological target: huCTLA4 (Homo sapiens, UniProt P16410)
Sequence (P16410 36-223): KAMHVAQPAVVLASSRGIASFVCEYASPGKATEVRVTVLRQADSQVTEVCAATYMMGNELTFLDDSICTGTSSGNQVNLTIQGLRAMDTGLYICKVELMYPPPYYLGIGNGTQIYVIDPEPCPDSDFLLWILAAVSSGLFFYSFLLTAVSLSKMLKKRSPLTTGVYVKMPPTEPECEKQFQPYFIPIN
Assay: Flow binding to CHO cells stably expressing CTLA4
Design: huCTLA4 and huPD-L1, full-length mammalian surface expression constructs were generated; expressed in transfected cells; host or cells: CHO cells, lentiviral transduction, sorted to >98% purity
Details: Table E19; MFI at 33.3 nM relative to WT CD80 ECD-Fc (Abcam)
Protocol: Binding of selected immunomodulatory fusion proteins to cognate binding partners was assessed. […] Cells were sorted in a Bio-Rad S3 Cell Sorter (Bio-Rad Corp., USA) to >98% purity. […] For staining and analysis by flow cytometry, 100,000 cells of appropriate transfected cells were plated in 96-well round bottom plates. […] Cells were then washed twice with 150 μL/well stain buffer, fixed in 2% formaldehyde/PBS, and analyzed on Intellicyt flow cytometer (Intellicyt Corp., USA). […]
# Lookup of reported CTLA4 Fold change to WT CD80 keyed by entry
The answer consists of two parts: a number and, after it, its unit.

Recorded results for 3 molecules are shown here.
{"molecule": "D46V/L85Q (protein) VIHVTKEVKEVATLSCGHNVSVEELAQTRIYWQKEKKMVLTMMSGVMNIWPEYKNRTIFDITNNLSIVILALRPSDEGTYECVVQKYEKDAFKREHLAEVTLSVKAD", "CTLA4 Fold change to WT CD80": "1.0 fold"}
{"molecule": "E35D/D46V/M47L/V68M/L85Q (protein) VIHVTKEVKEVATLSCGHNVSVEELAQTRIYWQKDKKMVLTMMSGVLNIWPEYKNRTIFDITNNLSIMILALRPSDEGTYECVVQKYEKDAFKREHLAEVTLSVKAD", "CTLA4 Fold change to WT CD80": "0.6 fold"}
{"molecule": "D46V/M47L/L85Q (protein) VIHVTKEVKEVATLSCGHNVSVEELAQTRIYWQKEKKMVLTMMSGVLNIWPEYKNRTIFDITNNLSIVILALRPSDEGTYECVVQKYEKDAFKREHLAEVTLSVKAD", "CTLA4 Fold change to WT CD80": "1.0 fold"}

Ask: Fill blank: measured CTLA4 Fold change to WT CD80 of the molecule M47V/N48K/K89N (protein) VIHVTKEVKEVATLSCGHNVSVEELAQTRIYWQKEKKMVLTMMSGDVKIWPEYKNRTIFDITNNLSIVILALRPSDEGTYECVVLKYENDAFKREHLAEVTLSVKAD is ____.
Reply: 1.0 fold
